Entries and their TGI
tested on: IGROV1 ovarian; test: NCI tumour cell line growth inhibition, 48 h

{"columns": ["compound", "TGI"],
 "data": [
  ["CCOP(C)(=O)/C(Cc1ccc(OC)c(OC)c1)=N\\O (stereo not given)", "> 100 µM"],
  ["Nc1nc(-c2cc(-c3cccc4ccccc34)nc(N)n2)cc(-c2cccc3ccccc23)n1", "> 100 µM"],
  ["CN(C)/C=C/c1c2c(nc3ccccc13)C(=O)c1ccccc1C2=O", "4.71 µM"],
  ["COc1ccc(C#CC2=C(c3cc(OC)c(OC)c(OC)c3)C(=O)OC2)cc1", "> 50 µM"]
]}

Pending compound:
Query block: Look up TGI of CCCCS(=O)CC(CO)NC(=O)/C=C/c1c(C)[nH]c(=O)[nH]c1=O (stereo not given) and report it.
Result block: 35.4 µM

====

test system: SF-539 CNS; assay: NCI tumour cell line growth inhibition, 48 h; in the data active means GI50 below about 0.43 µM; inactive means the rest
Choose the fitting class; nothing outside active, inactive is accepted.

The following compounds have reported results that may help.
{"columns": ["smiles.str", "class.assignment"],
 "data": [
  ["FC(F)(F)c1[nH]ncc1-c1nc2ccc3[nH]ncc3c2c2c1CCCC2", "inactive"],
  ["CCc1c(C)c2ccc(OCC(=O)N=Nc3c(O)[nH]c4ccccc34)c(C)c2oc1=O", "inactive"],
  ["Cc1ncc(-c2ccnc(Nc3ccc(S(C)(=O)=O)cc3)n2)n1C(C)C", "inactive"],
  ["COc1ccc(C#CC2=C(c3cc(OC)c(OC)c(OC)c3)C(=O)OC2)cc1", "inactive"],
  ["CN(C)CCOc1ccc(-c2cc(-c3ccc4c(c3)CC/C4=N\\O)c(-c3ccncc3)o2)cc1", "inactive"],
  ["C[C@]12CC[C@@H]3c4ccc(O)cc4CC[C@H]3[C@@H]1CC[C@@H]2NS(=O)(=O)c1ccc2ccccc2c1", "inactive"]
]}

Alright, here's another compound for you.
Query block: Hey, what did the test say about "Cn1c2ccccc2c2nnc(NNCc3ccccn3)nc21" ?
Result block: active

====

# TGI values compiled below
test system: CCRF-CEM leukemia; assay: NCI tumour cell line growth inhibition, 48 h
Give the quantity in µM, number only.

{"columns": ["smiles.str", "target.or.system", "unit.descriptor", "TGI"],
 "data": [
  ["Cc1cn2c(/C=N/N=C(N)N)c(-c3ccsc3)nc2s1", "CCRF-CEM leukemia", "µM", 6.21]
]}

# evaluate next
Query block: Give a short answer stating reported TGI for "CN(C)/C=C/c1c2c(nc3ccccc13)C(=O)c1ccccc1C2=O" .
Result block: 3.36

====

tested on: SF-539 CNS; assay: NCI tumour cell line growth inhibition, 48 h
Where a SMILES comes first, the peptide text is derived from it. The star is where a group is joined. Cbz = O=C(OCc1ccccc1)*
measurement.label: TGI

Field: example entries. Status: answers known.
{"columns": ["compound", "target.or.system", "TGI"],
 "data": [
  ["C/C=C1\\CCC2c3[nH]c4ccccc4c3CCN2C1 (centres undefined)", "SF-539 CNS", "> 100 µM"],
  ["O=Nc1c(O)c2ccccc2c2ccccc12", "SF-539 CNS", "1.6 µM"],
  ["CCOC(=O)CNC(=O)C(C)NC(=O)C(NC(=O)OCc1ccccc1)C(C)C (stereo not drawn) (Cbz-Val-Ala-Gly-OEt; configuration not given here)", "SF-539 CNS", "> 100 µM"],
  ["CCOC(=O)c1nc2cc(C(F)(F)F)ccc2[n+]([O-])c1C", "SF-539 CNS", "> 100 µM"],
  ["Cc1cc(=O)c2ccccc2n1CCCCCCCCCCn1c(C)cc(=O)c2ccccc21", "SF-539 CNS", "44.3 µM"],
  ["Nc1[nH]c(=S)c2c(N)n[nH]c2c1C(=O)Nc1ccc(Cl)cc1", "SF-539 CNS", "> 100 µM"]
]}

Query block: Report TGI from SF-539 CNS testing of O=C1CCC2(c3ccccc3)Nc3ccc(Cl)cc3N12 (centres undefined)
Result block: > 100 µM

Query block: Would you please give the reported TGI of "C=CCN1C[C@@H](C)N([C@@H](c2ccc(C(=O)N(CC)CC)cc2)c2cccc(OC)c2)C[C@@H]1C" with SF-539 CNS?
Result block: > 100 µM

Query block: # lookup: SF-539 CNS TGI, key = "COc1cc(Nc2nc3ccccc3nc2C(C)C)cc(OC)c1OC"
Result block: > 100 µM

Query block: Give reported TGI for "COc1cccc(C=C2N=C(C)N(n3c(-c4ccccc4)nc4ccccc4c3=O)C2=O)c1" (SF-539 CNS)
Result block: > 100 µM

Query block: Specify the recorded TGI for "O=C(COc1ccc(-c2nc3cc(Cl)c(Cl)cc3[nH]2)cc1)N=Nc1c(O)[nH]c2ccccc12" , system: SF-539 CNS.
Result block: 24.2 µM

Query block: Using SF-539 CNS as the test system, report measured TGI of "C=CCn1c(-c2ccc(Cl)cc2Cl)csc1=Nc1c(C)n(C)n(-c2ccccc2)c1=O" .
Result block: 30.4 µM

Query block: GET TGI where system = SF-539 CNS and item = "Brc1ccc(-c2cc(-c3ccc4c(c3)OCO4)c(-c3cccs3)n2Cc2ccccc2)cc1"
Result block: > 100 µM

Query block: Answer briefly: TGI recorded on SF-539 CNS for "CCCCN1C(=O)CS/C1=N/Nc1nc2c([nH]1)c(=O)n(C)c(=O)n2C"
Result block: > 100 µM

Query block: Give SF-539 CNS TGI for the following compound: O=C(CC1C(=O)Nc2ccccc2S1(=O)=O)Nc1cccc(Cl)c1 (centres undefined)
Result block: 22.8 µM

Query block: Write TGI of "CC(=O)N(C(C)=O)n1nc2c(n1)C(=O)c1ccccc1C2=O" ; system used: SF-539 CNS
Result block: > 100 µM

Query block: Find the measured TGI of "CNC(=O)c1cc2c(Oc3ccc(NC(=S)NC(=O)Cc4ccccc4)cc3F)ccnc2cc1OC" with SF-539 CNS as test system.
Result block: > 30.3 µM

Query block: Find TGI for "CN(C)c1ccc(/C=N/NC(=O)c2cccc3ccccc23)c(Cl)c1" on SF-539 CNS and write it down.
Result block: 26.1 µM

Query block: Using SF-539 CNS as the test system, report measured TGI of "O=[p+]1c2ccccc2[nH]c2ccccc21" .
Result block: > 100 µM

Sourced from PubChem BioAssay (NCI)
